Tested on: CXCL-12 res. HIV-1 NL4.3 variant
Assay: microbe, parasite or virus in culture
Type: cell-based
Conditions: Human immunodeficiency virus 1, MT4, read-out: IC50 MT-4 CXCL-12 res.
Parameter: IC50 (nM)
Note: unit nM is implicit; provide only the numeric part.

Looking up c1cc(CN2CCCNCCNCCCNCC2)ccc1CN1CCCNCCNCCCNCC1 , I found its IC50 recorded as 50.3
